This collection of values is drawn from paper PMC5327470.

Let's look at some compounds and their measured melting point.

Here's what some known entries look like.
COMPOUND: N#Cc1c(-c2ccccc2F)cc(-c2c[nH]c3ccc(Br)cc23)n2ccnc12 [5s]
melting point: 301.7 to 304.6 °C

COMPOUND: N#Cc1c(-c2ccc(O)c(Br)c2)cc(-c2c[nH]c3ccccc23)n2ccnc12 [5l]
melting point: 309.2 to 312.3 °C

COMPOUND: COc1cc(-c2cc(-c3c[nH]c4ccccc34)n3ccnc3c2C#N)c(Br)cc1O [5n]
melting point: 327.7 to 330 °C

COMPOUND: N#Cc1c(-c2ccccc2F)cc(-c2c[nH]c3ccccc23)n2ccnc12 [5e]
melting point: 304.6 to 308.8 °C

Turning now to a further compound:
Record N#Cc1c(-c2cccc(Br)c2)cc(-c2c[nH]c3ccccc23)n2ccnc12 [5g] , field melting point: 321.9 to 324.4 °C
